tested on: Saccharomyces cerevisiae; experiment: protein stability index of tFT-peptide fusion (C-terminal peptide) (PSI (0-1 scale)); higher = more stable (slower turnover); settings: genetic background: wild type; temperature: 30 C;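 note: PSI is a weighted mean of sequencing reads over stability bins, variants kept only with over 10 reads, mCherry proximal and sfGFP distal, peptide attached via GGGS linker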
Outcome: met for protein stability index of at least 0.7; not met for anything lower.

Prompt line: Identify whether the reported protein stability index of the following sequence is 0.7 or greater: PRLLPFPPPLDH
Response line: met

Prompt line: Given the entry VGLGMREWLGVE , answer whether its protein stability index meets or surpasses 0.7.
Response line: met

Prompt line: Could you please find out whether CRKLSIPLRGQS has protein stability index that meets 0.7 or exceeds it?
Response line: not met

Prompt line: Tell me whether protein stability index is at least 0.7 here: NALFDLAVMCLD
Response line: not met

Prompt line: Would you say PSSRFLFFCSFF shows protein stability index at minimum 0.7?
Response line: not met

Prompt line: I'd appreciate it if you could say whether KKKNTKKKNEQS has protein stability index at least equal to 0.7.
Response line: met

Prompt line: Please tell me: is the sequence TYKKAKIRKKYI at or over 0.7 in terms of protein stability index?
Response line: not met

Prompt line: Decide: protein stability index of VWDGLAVAATCS >= 0.7?
Response line: not met

Prompt line: # bool: protein stability index of GSSRMACYCKHS >= 0.7
Response line: not met

Prompt line: Answer whether protein stability index of AHRLTKVIILFG is greater than or equal to 0.7.
Response line: not met

Prompt line: Reported protein stability index reaches at least 0.7 for VLYPVISVLTTL ?
Response line: not met

Prompt line: # bool: protein stability index of EIHKDSNTENIK >= 0.7
Response line: not met

Prompt line: Say whether VGVGWAALRWYG shows protein stability index of 0.7 or more.
Response line: not met

Prompt line: Could you tell me if the measured protein stability index of GGGRRWPGGSGG reaches 0.7 or more?
Response line: met

Prompt line: Given the entry QDSANLSPSFPF , answer whether its protein stability index meets or surpasses 0.7.
Response line: met

Prompt line: Check this sequence for protein stability index at or above 0.7: GFSPLFVLVFGV
Response line: not met

Prompt line: Evaluate ASPLPPPSHLSL : protein stability index at minimum 0.7?
Response line: met

Prompt line: hey, is protein stability index for this one >= 0.7? PPSPPPPPAAST
Response line: met

Prompt line: Has VFSCPLLFASFS a recorded protein stability index greater than or equal to 0.7?
Response line: not met

Prompt line: Could you please find out whether RLCLLVVPLLPP has protein stability index that meets 0.7 or exceeds it?
Response line: not met

Prompt line: protein stability index >= 0.7 for FVISRPRLHSFC ?
Response line: not met

Prompt line: Evaluate EKGRGGIGSRGK : protein stability index at minimum 0.7?
Response line: met

Prompt line: Does SLCFSVFFPFFF have a reported protein stability index of at least 0.7?
Response line: not met

Prompt line: Could you verify whether the entry ALTLSYAIKLKV shows protein stability index of no less than 0.7?
Response line: not met

Prompt line: Does the reported protein stability index for VECEARTVEKAN fall at or above the 0.7 mark?
Response line: not met

Prompt line: Say whether PPRRAPPPIRLP shows protein stability index of 0.7 or more.
Response line: met

Prompt line: State whether the measured protein stability index reaches 0.7, counting equality as reaching it, for AQTTRGGRRGDE
Response line: not met

Prompt line: Decide: protein stability index of GGWSHMHLGLDG >= 0.7?
Response line: not met

Prompt line: Has TPPPTPSLPTRP a recorded protein stability index greater than or equal to 0.7?
Response line: not met

Prompt line: Can PPASLPPPTAFN be said to have protein stability index at or above 0.7?
Response line: met

Prompt line: Check if protein stability index >= 0.7 (inclusive). Item: GGKARKRKDKRA
Response line: not met

Prompt line: Is protein stability index at least 0.7? Consider PLPVLFFFSACS
Response line: not met

Prompt line: Please tell me: is the sequence SACAPSPPSPSP at or over 0.7 in terms of protein stability index?
Response line: met

Prompt line: Dear colleague, could you confirm whether PTRPPRPRAGPR has protein stability index at or above 0.7?
Response line: met

Prompt line: Is it the case that KDNCHSNQRELT has protein stability index reaching or exceeding 0.7?
Response line: not met

Prompt line: Could you tell me if the measured protein stability index of EFMRHAFTPLPT reaches 0.7 or more?
Response line: met

Prompt line: Quick check: does AFYVLPPSPLTR have protein stability index greater than or equal to 0.7?
Response line: not met

Prompt line: // inclusive: protein stability index at least 0.7? input: GARTPVPRHRVH
Response line: not met

Prompt line: Check the entry CRGPRASRRRGR : does protein stability index equal or exceed 0.7?
Response line: not met

Prompt line: Does the reported protein stability index for GPRAGFRRPELE fall at or above the 0.7 mark?
Response line: met

Prompt line: Test whether the sequence HVLGSIYWAIFV records protein stability index of 0.7 or higher.
Response line: not met

Prompt line: In plain terms: is recorded protein stability index at least 0.7 for SVNRRTVYRKNK ?
Response line: met

Prompt line: Is the recorded value of protein stability index equal to or greater than 0.7 for this sequence? PSDVLERVIRLL
Response line: not met

Prompt line: Would you say RGEPPSAKEIAR shows protein stability index at minimum 0.7?
Response line: met

Prompt line: Evaluate LYSLRRNWLRTP : protein stability index at minimum 0.7?
Response line: not met

Prompt line: Threshold query (protein stability index >= 0.7) on PRVPLPPPHPLH
Response line: met

Prompt line: Textbook exercise: given the entry PVGRSVFFVWFL , state whether its protein stability index is greater than or equal to 0.7.
Response line: not met

Prompt line: Is reported protein stability index greater than or equal to 0.7 here: MKLWSDALNVVR
Response line: not met

Prompt line: Identify whether the reported protein stability index of the following sequence is 0.7 or greater: RPSNPPTKSQPS
Response line: not met

====

test system: Saccharomyces cerevisiae; test: protein stability index of tFT-peptide fusion (C-terminal peptide) (PSI (0-1 scale)); higher = more stable (slower turnover); settings: genetic background: cdc34-1; temperature: 37 C
Reported protein stability index maps to class as: Low: < 0.3; Mid: ≥ 0.3 and < 0.5; High: ≥ 0.5

Prompt line: Form: Item = FFVFYICSCFLV ; Class = ?
Response line: Mid

Prompt line: Hey, which category is VWFVFVCAVCVL in, do you know?
Response line: Low

Prompt line: # bin label for KTSVLLCVSTSF
Response line: High

Prompt line: Bin? PPRRCFPLLLFF
Response line: Mid

Prompt line: Exercise: read the entry GINYSNKKILVN and state which class it falls under.
Response line: High

Prompt line: Band of WLCLFRFLGVAY ?
Response line: Low

Prompt line: Lab log: YAFYLFSRILAA — assign protein stability index category
Response line: Low

Prompt line: Into which bin does this sequence go? VCLCVIICSMSV
Response line: Low

Prompt line: Given LVGYCGAWACVV , name the class its protein stability index places it in.
Response line: High

Prompt line: Exercise: read the entry FRFGAKISLIVL and state which class it falls under.
Response line: High

Prompt line: Quick check: band for YPCRLFVRSLLA
Response line: Mid

Prompt line: For HLLMLAMVGFQC , which protein stability index bin applies?
Response line: High

Prompt line: Hello team, could you let me know which band the following sequence falls into: GLSGFLLLIVLY
Response line: Low

Prompt line: Which category does the recorded protein stability index put FVSSLLPLLTLL in?
Response line: High

Prompt line: Could you tell me which band NVVIGLHLLVYI belongs to?
Response line: Low

Prompt line: # classify by protein stability index band: GSMGGVGVLGGD
Response line: High

Prompt line: Which bin should I file LSFLCFSTVLHC under?
Response line: High

Prompt line: Sort GYRYMWLWRLSA into one of the categories.
Response line: High

Prompt line: Lab note: which band did LFFWFMYLRRLI land in?
Response line: Low

Prompt line: Kindly state the category for this sequence: LFFVVFFLLFLL
Response line: Mid

Prompt line: Please indicate the class for GIFVRIVCIDVA based on its protein stability index.
Response line: Low

Prompt line: Classify this sequence: VELRNCYLLVKA
Response line: Low

Prompt line: Sort into band: PPSPVPPIWYLA
Response line: High

Prompt line: Using the reported protein stability index, which band applies to PLFPLLGLLFFF ?
Response line: High

Prompt line: For this sequence, which bin applies? GCVTFVLISFCA
Response line: Low

====

Answer each item with its documented protein stability index.
test system: Saccharomyces cerevisiae; assay: protein stability index of tFT-peptide fusion (C-terminal peptide) (PSI (0-1 scale)); higher = more stable (slower turnover); details: genetic background: wild type; temperature: 30 C
In your answer, state the number alone without any accompanying words.

So, PHSLPPPTPPHS ? Its protein stability index was 0.629

Documented protein stability index of PTPTAPEPIHPS : 0.61

// recorded protein stability index for ERIIGNRCYVRK : 0.666

Reported protein stability index for EGDKGGGEQKRQ was 0.688

Entry LHPRPPLLPSLP , protein stability index reported as 0.608

The value of protein stability index measured for the sequence EGSVGRRGHCVR turned out to be 0.696

Just so you know, measured protein stability index for PSSPPLPLPALP came out at 0.723

Looking up IRRKYEGNKEQN , I found its protein stability index recorded as 0.721

protein stability index measured on PLPLPSLSAIFL = 0.677

Lab book: protein stability index of AGEGRLGDNIKG noted as 0.679

// FLISFCFVGLVL : protein stability index value = 0.55

Per the records, this sequence ( SGGISGCPPPVF ) has protein stability index equal to 0.689

Note to self: protein stability index recorded for DLYVADNCPNSP was 0.662

Per the record, LAAGGSAGTRVV has protein stability index of 0.656

Record ELGTDGSQKRAA , field protein stability index: 0.704

// recorded protein stability index for FSFFQFSASFFL : 0.699

For record VVWSGWGCGGVR the listed protein stability index is 0.619

Notebook: KKRKKKKIIQTK , protein stability index read as 0.65

So, RRTTIFDTKEPP ? Its protein stability index was 0.462

Record KKLKKTTNQTKK . Reported protein stability index: 0.616

Measured protein stability index of VPPPLTSPSWHF : 0.682

The recorded protein stability index for SACRSVPGYVAG is 0.672

Short answer for TLAPSKHGSNRT : protein stability index was 0.666

For reference, reported protein stability index for GPCSLVSLFAGD stands at 0.697

The sequence listed as LSSFIHCLYSHC shows protein stability index equal to 0.606

Memo: SNRASVCKSGKR , reported protein stability index: 0.677

Lab note: PPALPPTRPPVS gave protein stability index of 0.696

Value of measured protein stability index for the entry GLCHFVRLSCFC : 0.519

The sequence listed as FRFGAKISLIVL shows protein stability index equal to 0.368

For SIVLRNRSGDIL the sequence record lists protein stability index as 0.63
